Target: IN deltaC (IN1-213) (HIV-1, UniProt P04585 1148-1360)
Experiment: fluorescence anisotropy
measured_property: Kd (nM)
Answers are plain numbers, in nM.

Ask: So what's the measured Kd for this one? U5A/U5B (dsDNA) DNA 1: GTGTGGAAAATCTCTAGCAGT DNA 2: ACTGCTAGAGATTTTCCACAC
Reply: 64
